The reader will find reported log10 MIC values listed item by item below.
system: Streptococcus pneumoniae; assay: Antibacterial activity against quinolone-resistant Streptococcus pneumoniae ATCC 7257; format: functional
Short version: log10 scale, MIC, µg/mL.

GET /value?item= O=C(O)c1cnc2nc3c(cc2c1O)OCC1CCCCN31 (stereo unspecified) &field=log10 MIC returns 1.20

The compound listed as O=C(O)c1cn(C2CC2)c2nc3c(cc2c1=O)OC[C@@H]1CCCN31 shows log10 MIC equal to 0.90

For O=C(O)c1cnc2nc3c(cc2c1O)OC[C@@H]1CCN31 the compound record lists log10 MIC as 0.30

The measured log10 MIC associated with C[C@@H]1Oc2cc3c(O)c(C(=O)O)cnc3nc2N2CCC[C@@H]12 reads 0.60

response.value for O=C(O)c1cnc2nc3c(cc2c1O)OC[C@H]1CCCN31 (field: log10 MIC) = 0.00

Memo: CCN1CCOc2cc3c(O)c(C(=O)O)cnc3nc21 , reported log10 MIC: 1.51

// sample O=C(O)c1cnc2nc3c(cc2c1O)OC[C@@H]1CCCN31 , its log10 MIC was 0.00

Lab book: log10 MIC of O=C(O)c1cnc2nc3c(cc2c1O)NC[C@@H]1CCCN31 noted as 0.90

----------
Entries and their MIC values follow.
tested on: Streptococcus pneumoniae; assay: Antibacterial activity against quinolone-resistant Streptococcus pneumoniae ATCC 7257; type: functional
Just the number please, in µg/mL, no unit attached.

# mol_smiles, system_under_test, MIC (µg/mL)
measured = [
    ("O=C(O)c1cn(C2CC2)c2cc(N3CCNCC3)c(F)cc2c1=O", "Streptococcus pneumoniae", 16),
    ("O=C(O)c1cnc2nc3c(cc2c1O)OC[C@@H]1C[C@@H](O)CN31", "Streptococcus pneumoniae", 16),
    ("COc1ccc(Cn2cc(C(=O)O)c(=O)c3cc4c(nc32)N2CCC[C@@H]2CO4)c(OC)c1", "Streptococcus pneumoniae", 16),
]

Please turn your attention to the following entry.
Noted for O=C(O)c1cnc2nc(N3CCCC3)c(F)cc2c1O : its MIC reads 4

----------
Below is a list of entries, each paired with its recorded MIC value.
system: Streptococcus pneumoniae; experiment: Antibacterial activity against quinolone-resistant Streptococcus pneumoniae ATCC 7257; format: functional
State just the number; it will be interpreted in µg/mL.

Sample records with MIC:
# molecule, value_unit, numeric_value
records = [
    ("CC12CCCN1c1nc3ncc(C(=O)O)c(O)c3cc1OC2 (stereo not given)", "µg/mL", 32),
    ("CN1C[C@@H]2CCCN2c2nc3ncc(C(=O)O)c(O)c3cc21", "µg/mL", 2),
    ("C[C@H]1Oc2cc3c(O)c(C(=O)O)cnc3nc2N2CCCC12 (single isomer, unassigned)", "µg/mL", 32),
]

Sure, the documented MIC for COc1ccc(Cn2cc(C(=O)O)c(=O)c3cc4c(nc32)N2CCC[C@H]2CO4)c(OC)c1 is 32

Lab note: C=CC[C@@H]1Oc2cc3c(O)c(C(=O)O)cnc3nc2N2CCC[C@@H]12 gave MIC of 8

Looking up CN1CCOc2cc3c(O)c(C(=O)O)cnc3nc21 , I found its MIC recorded as 32

----------
Listed here are compounds together with their documented MIC.
test system: Streptococcus pneumoniae; assay: Antibacterial activity against quinolone-resistant Streptococcus pneumoniae ATCC 7257; type: functional

Worked cases, MIC given:
# mol_smiles, system_under_test, result
rows = [
    ("O=C(O)c1cnc2cc(N3CCNCC3)c(F)cc2c1O", "Streptococcus pneumoniae", "> 64 µg/mL"),
    ("O=C(O)c1cnc2nc3c(cc2c1O)OCCN3", "Streptococcus pneumoniae", "> 64 µg/mL"),
]

Let us examine a further case.
For N[C@H]1C[C@H]2COc3cc4c(O)c(C(=O)O)cnc4nc3N2C1 the compound record lists MIC as > 64 µg/mL

Just for reference, ChEMBL document CHEMBL1146867 is where these values come from.
